target: IDO (Homo sapiens, UniProt P14902); assay: hIDO biochemical coupled assay; conditions: 45 μM L-tryptophan, 17 minutes, room temperature; read-out: hIDO biochemical assay pIC50 (converted)
Sequence (P14902 whole entry): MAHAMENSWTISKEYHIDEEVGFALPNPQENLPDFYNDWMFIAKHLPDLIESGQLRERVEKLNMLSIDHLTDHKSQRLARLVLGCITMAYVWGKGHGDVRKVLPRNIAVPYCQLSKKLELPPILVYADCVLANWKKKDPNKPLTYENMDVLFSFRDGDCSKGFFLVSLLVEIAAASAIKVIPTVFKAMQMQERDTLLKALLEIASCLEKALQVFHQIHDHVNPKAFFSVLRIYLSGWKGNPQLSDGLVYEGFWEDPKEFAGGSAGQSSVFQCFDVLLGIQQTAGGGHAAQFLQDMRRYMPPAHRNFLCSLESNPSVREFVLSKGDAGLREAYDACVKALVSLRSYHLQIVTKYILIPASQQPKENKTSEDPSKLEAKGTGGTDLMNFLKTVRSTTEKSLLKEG
Each entry below carries its recorded IC50.
Outcome measure: IC50

1. CC(=O)N1CCN(c2cc(C#N)cc3[nH]ncc23)CC1
> 100 µM
2. O=C1NCCN1C1CCN(c2cc(Cl)cc3[nH]ncc23)CC1
> 100 µM
3. O=C1Nc2ccccc2C12CCN(c1cc(Cl)cc3[nH]ncc13)CC2
> 100 µM
4. NC(=O)c1ccc(-c2cc(Cl)cc3[nH]ncc23)cc1
> 100 µM
5. Cn1ncc2cccc(N3CCN(S(C)(=O)=O)CC3)c21
32.4 to 100 µM
6. c1ccc(CNc2cccc3[nH]ncc23)cc1
> 100 µM
7. O=C1CN(c2cc(Cl)cc3[nH]ncc23)CCN1
> 100 µM
8. CC(=O)N1CCC2(CC1)CN(c1cc(Cl)cc3[nH]ncc13)C2
> 100 µM
9. O=C(O)C1CCN(c2cc(Cl)cc3[nH]ncc23)CC1
32.4 to 100 µM
10. Cc1cc(-c2cc(Cl)cc3[nH]ncc23)ccc1S(C)(=O)=O
32.4 to 100 µM
11. NC(=O)C1CCCN(c2cc(Cl)cc3[nH]ncc23)C1 (stereo not drawn)
> 100 µM
12. CC(=O)NCc1ccc(-c2cc(Cl)cc3[nH]ncc23)cc1
> 100 µM
13. Cc1noc(C)c1S(=O)(=O)Nc1cccc2[nH]ncc12
> 100 µM
14. CS(=O)(=O)c1ccc(-c2cc(Cl)cc3[nH]ncc23)cc1
3.24 to 31.6 µM
15. CS(=O)(=O)Nc1ccc2c(c1)CCN(c1cc(Cl)cc3[nH]ncc13)C2
> 100 µM
16. CC1(C)CN(c2cc(OC(F)(F)F)cc3[nH]ncc23)CCN1S(C)(=O)=O
3.24 to 31.6 µM
17. Clc1cc(N2CCc3ccncc3C2)c2cn[nH]c2c1
> 100 µM
18. CC(=O)NCCN1CCN(c2cc(Cl)cc3[nH]ncc23)CC1(C)C
3.24 to 31.6 µM
